Test system: auricle of hairless mouse
Assay: Measurement of external blood circulation enhancing action: vasodilatory effect (red spots) after application to the ear
Format: in vivo, hairless mouse (HR-1, female)
Conditions: 0.5 wt % (ethanol)
ATTRIBUTE MEASURED: Vasodilatory effect for hairless mouse (red spots)

• CC[C@H](C)CCCCCOC(=O)Cc1ccc(O)c(OC)c1 [compound K-2, (S)-(+)-6-methyloctyl homovanillate] = ∘
• COc1cc(CC(=O)OCCCCCC(C)C)ccc1O [compound K-3, 6-methylheptyl homovanillate] = ∘
• COc1cc(CNC(=O)CCCC/C=C/C(C)C)ccc1O [capsaicin, reference compound] = ∘
• COc1cc(CC(=O)OCCCCCCC(C)C)ccc1O [compound K-1, 7-methyloctyl homovanillate] = ∘
